Catalogue of molecules with associated Ki
Assayed target: Rhesus PDE2A3 (Macaca mulatta)
Sequence (B3VTJ2 1-941): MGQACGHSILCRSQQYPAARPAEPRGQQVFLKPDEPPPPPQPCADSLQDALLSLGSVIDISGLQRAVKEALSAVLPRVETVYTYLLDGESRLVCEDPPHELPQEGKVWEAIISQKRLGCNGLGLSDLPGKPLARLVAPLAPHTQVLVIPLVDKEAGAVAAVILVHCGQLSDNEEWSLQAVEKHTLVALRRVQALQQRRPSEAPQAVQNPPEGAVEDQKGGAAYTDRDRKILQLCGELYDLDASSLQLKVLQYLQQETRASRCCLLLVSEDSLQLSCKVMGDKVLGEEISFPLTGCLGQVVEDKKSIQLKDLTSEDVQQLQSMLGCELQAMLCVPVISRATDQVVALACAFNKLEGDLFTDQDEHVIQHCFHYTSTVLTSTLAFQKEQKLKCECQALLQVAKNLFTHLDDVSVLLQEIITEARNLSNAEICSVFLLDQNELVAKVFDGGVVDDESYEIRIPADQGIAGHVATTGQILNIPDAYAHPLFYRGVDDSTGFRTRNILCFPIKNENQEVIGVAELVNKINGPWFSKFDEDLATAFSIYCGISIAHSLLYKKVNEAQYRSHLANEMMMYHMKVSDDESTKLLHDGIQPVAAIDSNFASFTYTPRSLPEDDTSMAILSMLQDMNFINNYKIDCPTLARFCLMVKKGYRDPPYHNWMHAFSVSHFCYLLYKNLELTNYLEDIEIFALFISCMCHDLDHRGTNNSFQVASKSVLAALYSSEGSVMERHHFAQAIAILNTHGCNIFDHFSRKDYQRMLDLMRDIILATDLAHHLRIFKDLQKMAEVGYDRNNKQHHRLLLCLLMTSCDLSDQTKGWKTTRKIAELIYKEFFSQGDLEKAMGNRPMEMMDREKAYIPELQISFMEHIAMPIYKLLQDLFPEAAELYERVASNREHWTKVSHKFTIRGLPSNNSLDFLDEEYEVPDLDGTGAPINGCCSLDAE
Assay explanation: PDE2 fluorescence polarization (IMAP FP) inhibition assay, rhesus enzyme
Assay type: biochemical, rhesus macaque
Details: Rhesus PDE2, Lab B; read-out: Rhesus PDE2 Ki (nM) - Lab B
Enter your answer as a number in nM; do not include the unit.

Here are 3 molecules together with their reported answers.
{"columns": ["Molecule", "Ki / nM"],
 "data": [
  ["COc1ccc(C(C)(C)c2nc(C(=O)N[C@@H](c3ccc(OC(F)(F)F)cc3)C(C)C)cc(=O)[nH]2)cc1", 54],
  ["CC1(C(NC(=O)c2cc(=O)[nH]c(-c3ncccn3)n2)c2ccc(SC(F)(F)F)c(F)c2)CC1 (single isomer, unassigned) [Example 709]", 8.1],
  ["CC(C)(C)[C@@H](NC(=O)c1cc(=O)[nH]c(-c2ncccn2)n1)c1ccc(C(F)(F)F)cc1", 4.7]
]}

Note: attention shifts to another entry.
Report Ki for CC(NC(=O)c1cc(=O)[nH]c(-c2ccccc2)n1)c1ccc(C(C)(C)C)cc1 (stereo not shown) tested on Rhesus PDE2A3 (Macaca mulatta).
65

* * *

Catalogue of molecules with associated Ki
Assayed target: UniProt B3VTJ2
Assay explanation: PDE2 fluorescence polarization (IMAP FP) inhibition assay, rhesus enzyme
Type: biochemical, rhesus macaque
Details: Rhesus PDE2, Lab B; read-out: Rhesus PDE2 Ki (nM) - Lab B
Enter your answer as a number in nM; do not include the unit.

Here are 2 molecules together with their reported answers.
{"columns": ["Compound", "Unit abbrev", "Ki"],
 "data": [
  ["COc1ccc(C(C)(C)c2nc(C(=O)N[C@@H](c3ccc(SC(F)(F)F)c(F)c3)C3CC3)cc(=O)[nH]2)cc1", "nM", 80],
  ["CC(C)(C)[C@@H](NC(=O)c1cc(=O)[nH]c(-c2ncccn2)n1)c1ccc(C2CC2)c(F)c1", "nM", 6.7]
]}

Could you tell me which Ki is on file for `COc1ccc(Cc2nc(C(=O)N[C@@H](c3ccc(SC(F)(F)F)cc3)C3CC3)cc(=O)[nH]2)cc1` ?
1.9

* * *

Assayed target: UniProt B3VTJ2
Assay explanation: PDE2 fluorescence polarization (IMAP FP) inhibition assay, rhesus enzyme
Assay type: biochemical, rhesus macaque
Details: Rhesus PDE2, Lab B; read-out: Rhesus PDE2 Ki (nM) - Lab B
Catalogue of compounds with associated Ki

Here are 2 compounds together with their reported answers.
{"columns": ["Compound", "Ki"],
 "data": [
  ["C[C@H](O)[C@@H](NC(=O)c1cc(=O)[nH]c(C2CC2)n1)c1ccc(C(F)(F)F)cc1", "> 2970 nM"],
  ["CCOC(=O)c1ccc([C@@H](C)NC(=O)c2cc(=O)[nH]c(-c3ccccc3)n2)cc1", "~29200 nM"]
]}

Note: attention shifts to another entry.
Could you tell me which Ki is on file for CC(NC(=O)c1cc(=O)[nH]c(-c2ccccc2)n1)c1cccc(-c2ccc(F)cc2)c1 (stereo not drawn) ?
~20300 nM
